Sourced from the supplement of paper PMC12669032

# Tested on: Lactobacillus paracasei
# Test: growth AUC relative to DMSO control (median of replicates) (fraction); higher = more growth (less inhibition), active = hit call of the paper
# Assay Setup: 20 µM; 24 h
Use YES when the recorded growth AUC is no lower than 1; use NO when it is lower.

Prompt: Dear colleague, could you confirm whether ClC1(Cl)C2(Cl)C3(Cl)C4(Cl)C(Cl)(Cl)C5(Cl)C3(Cl)C1(Cl)C5(Cl)C24Cl (centres undefined) has growth AUC at or above 1?
Response: NO

Prompt: Dear colleague, could you confirm whether ClC1=C(Cl)[C@]2(Cl)[C@@H]3[C@@H]4C[C@@H]([C@H]5O[C@@H]45)[C@@H]3[C@@]1(Cl)C2(Cl)Cl has growth AUC at or above 1?
Response: NO

Prompt: Dear colleague, could you confirm whether C=CCC1=C(C)C(OC(=O)[C@@H]2[C@@H](C=C(C)C)C2(C)C)CC1=O (some centres undefined) has growth AUC at or above 1?
Response: NO

Prompt: Dear colleague, could you confirm whether CC(C)(C)N(NC(=O)c1ccc(Cl)cc1)C(=O)c1ccccc1 has growth AUC at or above 1?
Response: YES

Prompt: Dear colleague, could you confirm whether N#Cc1c[nH]cc1-c1cccc2c1OC(F)(F)O2 has growth AUC at or above 1?
Response: NO

Prompt: Dear colleague, could you confirm whether O=c1oc2ccccc2c(O)c1C1CC(c2ccc(OCc3ccc(C(F)(F)F)cc3)cc2)Cc2ccccc21 (mixture of isomers) has growth AUC at or above 1?
Response: NO
